Hello, the source for this data is patent US7829560B2, in case you need it.

Molecular target: p38α (Homo sapiens)
Construct: p38 MAP Kinases are recombinant human full-length proteins with an amino-terminal GST fusion; GST (N)
Assay: p38 MAP Kinase assay: inhibition of ATF2 phosphorylation, ELISA
Settings: ATF2 phosphorylation; read-out: [ENZ] P38 ALPHA, IC50, ELISA
Would you kindly list IC50 for each of these compounds?
Numbers only, in µM.

INSERT INTO results (compound, metricname, testvalue) VALUES
  ('O=C(Nc1ccc(OCCN2CCOCC2)c2ccccc12)c1cccc(N2CCOCC2)c1 [Compound B169]', 'IC50', 2.07),
  ('O=C(Nc1ccc(Oc2ccnc(-n3ccnc3)n2)c2ccccc12)c1cc(F)cc(N2CCOCC2)c1 [Compound B325]', 'IC50', 0.0344),
  ('CN1CCCC1CCNc1nccc(Oc2ccc(NC(=O)c3cc(F)cc(N4CCOCC4)c3)c3ccccc23)n1 (stereo not drawn) [Compound B344]', 'IC50', 0.0011),
  ('O=C(Nc1ccc(Oc2ccnc(-n3ccnc3)n2)c2ccccc12)c1cc(F)cc(N2CCCCC2)c1 [Compound B379]', 'IC50', 0.0151),
  ('O=C(Nc1ccc(OCCN2CCOCC2)c2ccccc12)c1cccc(-c2cccc(Cl)c2)c1 [Compound B94]', 'IC50', 1.14);

For each of the items listed, what is its IC50?
1. O=C(Nc1ccc(OCCN2CCOCC2)c2ccccc12)c1ccnc(N2CCOCC2)c1 [Compound B122]
2. O=C(Nc1ccc(Oc2ccnc(NC3(CO)CCCC3)n2)c2ccccc12)c1cc(F)cc(N2CCOCC2)c1 [Compound B350]
3. Cc1cccc(-c2cccc(C(=O)Nc3ccc(OCCN4CCOCC4)c4ccccc34)c2)c1C [Compound B296]
4. Cc1cc(C(=O)Nc2ccc(OCCN3CCOCC3)c3ccccc23)cc(N2CCC(C)CC2)n1 [Compound B154]
5. O=C(Nc1ccc(OCCN2CCOCC2)c2ccccc12)c1cc(N2CCOCC2)nc(Cl)n1 [Compound B42]
6. O=C(Nc1ccc(OCCN2CCC3(CC2)OCCO3)c2ccccc12)c1cc(F)cc(N2CCCCC2)c1 [Compound B159]

3.52
0.0095
1.88
2.72
6.34
1.09

For each of the items listed, what is its IC50?
1. C[C@@H]1CN(c2cccc(C(=O)Nc3ccc(OCCN4CCOCC4)c4ccccc34)c2)C[C@H](C)O1 [Compound B31]
2. O=C(Nc1ccc(Oc2ccnc(NC3CCCC3)n2)c2ccccc12)c1cc(F)cc(N2CCOCC2)c1 [Compound B250]
3. CN(C)C(=O)[C@@H]1CCCN1c1nccc(Oc2ccc(NC(=O)c3cc(F)cc(N4CCOCC4)c3)c3ccccc23)n1 [Compound B356]
4. CC1CCCN1c1nccc(Oc2ccc(NC(=O)c3cc(F)cc(N4CCCCC4)c3)c3ccccc23)n1 (stereo not drawn) [Compound B404]

1: 10; 2: 0.0305; 3: 0.264; 4: 0.151

----------
Would you kindly list IC50 for each of these compounds?
Biological target: p38α (Homo sapiens, UniProt Q16539)
Construct: p38 MAP Kinases are recombinant human full-length proteins with an amino-terminal GST fusion; GST (N)
Sequence (Q16539 whole entry, the tested form may be a part): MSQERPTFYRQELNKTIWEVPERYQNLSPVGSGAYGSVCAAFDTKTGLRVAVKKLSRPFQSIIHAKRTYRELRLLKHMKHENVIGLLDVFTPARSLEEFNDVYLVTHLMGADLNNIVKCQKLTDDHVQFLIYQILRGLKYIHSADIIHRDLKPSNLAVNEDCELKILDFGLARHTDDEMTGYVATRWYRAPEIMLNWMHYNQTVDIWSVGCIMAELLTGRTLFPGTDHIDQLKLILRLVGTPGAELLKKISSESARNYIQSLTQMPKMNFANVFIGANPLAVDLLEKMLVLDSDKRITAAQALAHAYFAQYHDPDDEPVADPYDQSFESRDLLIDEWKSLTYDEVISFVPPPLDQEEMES
Experiment: p38 MAP Kinase assay: inhibition of ATF2 phosphorylation, ELISA
Conditions: ATF2 phosphorylation; read-out: [ENZ] P38 ALPHA, IC50, ELISA

INSERT INTO measurements (compound, testvalue) VALUES
  ('CC(=O)c1cccc(-c2cccc(C(=O)Nc3ccc(OCCN4CCOCC4)c4ccccc34)c2)c1', '> 10 µM'),
  ('O=C(Nc1ccc(OCCN2CCOCC2)c2ccccc12)c1cccc(N2CCC3CCCCC3C2)n1 (stereo not drawn)', '> 10 µM');

Please turn your attention to the following entry.
Entry `CCOc1ccc(Cl)cc1-c1cccc(C(=O)Nc2ccc(OCCN3CCOCC3)c3ccccc23)c1` , p38α (Homo sapiens, UniProt Q16539) data, IC50 value: > 10 µM

----------
Target: p38α (Homo sapiens)
Construct: p38 MAP Kinases are recombinant human full-length proteins with an amino-terminal GST fusion; GST (N)
Assay: p38 MAP Kinase assay: inhibition of ATF2 phosphorylation, ELISA
Conditions: ATF2 phosphorylation; read-out: [ENZ] P38 ALPHA, IC50, ELISA
pIC50: −log10 of the molar value.
Values of pIC50 greater than or equal to 6 map to yes (1); values below map to no (0).

Solved cases (8 shown):
INSERT INTO measurements (compound, cat) VALUES
  ('O=C(Nc1ccc(OCCN2CCOCC2)c2ccccc12)c1cccc(-c2ccc(Cl)c(Cl)c2)c1', 'no (0)'),
  ('O=C(Nc1ccc(OCCN2CCOCC2)c2ccccc12)c1cccc(-c2cc(Cl)ccc2Cl)c1', 'no (0)'),
  ('O=C(Nc1ccc(OCCN2CCCC2=O)c2ccccc12)c1cc(F)cc(N2CCCCC2)c1', 'no (0)'),
  ('Cc1ccc(-c2cccc(C(=O)Nc3ccc(OCCN4CCOCC4)c4ccccc34)c2)cc1C', 'no (0)'),
  ('O=C(Nc1ccc(OCc2ccoc2)c2ccccc12)c1cc(F)cc(N2CCCCC2)c1', 'no (0)'),
  ('CN(C)C1CCN(c2nccc(Oc3ccc(NC(=O)c4cc(F)cc(N5CCCCC5)c4)c4ccccc34)n2)C1 (stereo not shown)', 'yes (1)'),
  ('O=C(Nc1ccc(Oc2ccnc(N3CCC(O)CC3)n2)c2ccccc12)c1cc(F)cc(N2CCOCC2)c1', 'yes (1)'),
  ('C#CCN(C)c1nccc(Oc2ccc(NC(=O)c3cc(F)cc(N4CCCCC4)c3)c3ccccc23)n1', 'yes (1)');

--- query ---
Assess whether reported pIC50 for `O=C(Nc1ccc(Oc2ccnc(NC3CCCCC3)n2)c2ccccc12)c1cc(F)cc(N2CCCCC2)c1` sits at 6 or higher.
yes (1)

----------
Target: p38α (Homo sapiens, UniProt Q16539)
Construct: p38 MAP Kinases are recombinant human full-length proteins with an amino-terminal GST fusion; GST (N); purchased Upstate Biotechnology Inc; host or cells: E. coli
Experiment: p38 MAP Kinase assay: inhibition of ATF2 phosphorylation, ELISA
Type: biochemical
Conditions: 10 uM; substrate ATF2; read-out: [ENZ] P38 ALPHA, PCT INH, ELISA (10 uM;ATF2) (Percent)
Excerpt: Compounds of the invention are screened for the ability to inhibit ATF2 phosphorylation by p38 MAP Kinase in vitro. […]
metricName: inhibition at 10 µM (%)
Give bare numbers, in %.

For each of the items listed, what is its inhibition at 10 µM?
1. CCN(C)c1cc(C(=O)Nc2ccc(OCCN3CCOCC3)c3ccccc23)cc(C)n1
2. CCN(C)c1cc(C(=O)Nc2ccc(OCCN3CCOCC3)c3ccccc23)ccn1
3. CN(C)CCN(C)c1cc(F)cc(C(=O)Nc2ccc(OCCN3CCOCC3)c3ccccc23)c1
4. O=C(Nc1ccc(OCCN2CCC(CO)CC2)c2ccccc12)c1cc(F)cc(N2CCCCC2)c1
5. C[C@@H]1CN(CCOc2ccc(NC(=O)c3cccc(N4CCOCC4)c3)c3ccccc23)C[C@H](C)O1
6. CCn1nc(C)cc1C(=O)Nc1ccc(OCCN2CCOCC2)c2ccccc12

[8, 52, 10, 57, 65, 9]

For each of the items listed, what is its inhibition at 10 µM?
1. CC1CCCN(c2cccc(C(=O)Nc3ccc(OCCN4CCOCC4)c4ccccc34)n2)C1 (centres unmarked)
2. CC(C)(C)CCNc1cccc(C(=O)Nc2ccc(OCCN3CCOCC3)c3ccccc23)n1

[34, 12]

----------
Would you kindly list log10 of IC50 for each of these compounds?
Molecular target: p38α (Homo sapiens, UniProt Q16539)
Construct: p38 MAP Kinases are recombinant human full-length proteins with an amino-terminal GST fusion; GST (N)
Test: p38 MAP Kinase assay: inhibition of ATF2 phosphorylation, ELISA
Details: ATF2 phosphorylation; read-out: [ENZ] P38 ALPHA, IC50, ELISA
Answers are given as log10 of IC50 in nM.

Some solved entries appear below for comparison.
INSERT INTO assay_data (compound, metricname, testvalue) VALUES
  ('O=C(Nc1ccc(OCCN2CCOCC2)c2ccccc12)c1ccnc(N2CCCC2)c1', 'log10 of IC50', 3.33),
  ('O=C(Nc1ccc(Oc2ccnc(N3CCC4(CC3)OCCO4)n2)c2ccccc12)c1cc(F)cc(N2CCCCC2)c1', 'log10 of IC50', 1.23),
  ('CC(=O)N1CCN(CCOc2ccc(NC(=O)c3cc(F)cc(N4CCCCC4)c3)c3ccccc23)CC1', 'log10 of IC50', 2.93),
  ('CCOc1ccccc1-c1cccc(C(=O)Nc2ccc(OCCN3CCOCC3)c3ccccc23)c1', 'log10 of IC50', 3.61),
  ('CC1CCCN(c2cc(F)cc(C(=O)Nc3ccc(OCCN4CCOCC4)c4ccccc34)c2)C1 (stereo not shown)', 'log10 of IC50', 2.46),
  ('CN(C)C1CCN(c2nccc(Oc3ccc(NC(=O)c4cc(F)cc(N5CCOCC5)c4)c4ccccc34)n2)C1 (stereo not shown)', 'log10 of IC50', 1.45);

Please turn your attention to the following entry.
The reported value for `O=C(Nc1ccc(Oc2ccnc(N3CCC(CO)CC3)n2)c2ccccc12)c1cc(F)cc(N2CCCCC2)c1` in terms of log10 of IC50 is 0.79
